These entries and their values trace back to the supplement of paper PMC6555819.

Test system: VDR:RXRa (NR concentration 270 nM, RXRa partner concentration 90 nM)
Assay: PBM binding z-score (relative to random genomic background probes); higher = stronger binding; sequences stand for … in GC…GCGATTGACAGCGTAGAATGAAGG
Entries annotated with measured PBM binding z-score
metric-name: PBM binding z-score

{"columns": ["entry-sequence", "assay-result"],
 "data": [
  ["TCTTGTAGATCAAAGGATAAGAAAGCCGAAGCCT", 0.22],
  ["CGAACTAGGTCAAGGACAGGGAATCTCCGCACGC", 1.09],
  ["CCTACTGGGCCACGGAAGGTCATTGATTCAGTGA", 2.83],
  ["ACTATTAGTTGAGACGAGGGCAAACGATAGGTTG", 0.775],
  ["TAGCCTAGGTCATTCAGGAGCCAGTATAGAAAGC", 2.21],
  ["CCAGACAGGTGAAAAGGTAACTCAGCCTCGATTA", 0.369],
  ["GCTTACGAGTCAAAGGTTATAGCATGAATAGAAT", 2.16],
  ["CGTCCAAGGTCAGCCGGTCAGTGAAAGCGACGTG", 3.32]
]}

###

Test system: LXRa:RXRa (NR concentration 270 nM, RXRa partner concentration 90 nM)
Test: PBM binding z-score (relative to random genomic background probes); higher = stronger binding; sequences stand for … in GC…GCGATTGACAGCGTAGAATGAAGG
// label = 1 (yes) if PBM binding z-score is not less than 0.4, otherwise 0 (no)

{"columns": ["entry-sequence", "measured-on", "class-assignment"],
 "data": [
  ["AGTCAAAGTTCATCTAGGTAACGTAGGATATGCT", "LXRa:RXRa (NR concentration 270 nM, RXRa partner concentration 90 nM)", "1 (yes)"],
  ["CAAACTAGGTCACGAAAGGTCAATGTCGAATGAC", "LXRa:RXRa (NR concentration 270 nM, RXRa partner concentration 90 nM)", "1 (yes)"],
  ["GCGACTGGGGCATCAGCAGTTTACCATAACTTAA", "LXRa:RXRa (NR concentration 270 nM, RXRa partner concentration 90 nM)", "0 (no)"],
  ["ACTATTAGCTGAGACGAGGGCAACCGATAGGTTG", "LXRa:RXRa (NR concentration 270 nM, RXRa partner concentration 90 nM)", "0 (no)"],
  ["ATATGTAGGTTACATCCGGGTCGTTCAGGCTATG", "LXRa:RXRa (NR concentration 270 nM, RXRa partner concentration 90 nM)", "1 (yes)"],
  ["ACTCGGAGGACAAAGGGCAGAGCTACGCCAGTGA", "LXRa:RXRa (NR concentration 270 nM, RXRa partner concentration 90 nM)", "0 (no)"],
  ["CCTACTGGGCCAAAGGTCATTCATTCCAATGCTC", "LXRa:RXRa (NR concentration 270 nM, RXRa partner concentration 90 nM)", "1 (yes)"],
  ["TTTCGGAGGACACGAAAGGTCAGAGCTCGACATC", "LXRa:RXRa (NR concentration 270 nM, RXRa partner concentration 90 nM)", "1 (yes)"],
  ["TGTCAAAGTTTAAAGGTAACGTAAGTATCCACAC", "LXRa:RXRa (NR concentration 270 nM, RXRa partner concentration 90 nM)", "1 (yes)"],
  ["GCATATAGGTAATACAAGGTGAAGGTCCGATTGT", "LXRa:RXRa (NR concentration 270 nM, RXRa partner concentration 90 nM)", "1 (yes)"],
  ["CCTACTGGGCCAAGGTTATTGATCAGTCAAAGCA", "LXRa:RXRa (NR concentration 270 nM, RXRa partner concentration 90 nM)", "1 (yes)"],
  ["GCTCGGAGGACAAAGTCAGAGCTTTGTCCGTAGA", "LXRa:RXRa (NR concentration 270 nM, RXRa partner concentration 90 nM)", "0 (no)"],
  ["ATATGTAGGTTAGCCGGGGTCATTCAGACTAGGC", "LXRa:RXRa (NR concentration 270 nM, RXRa partner concentration 90 nM)", "1 (yes)"],
  ["TGATATAGGTAAACAGGTGAAAGTCCGTAAGTTA", "LXRa:RXRa (NR concentration 270 nM, RXRa partner concentration 90 nM)", "0 (no)"]
]}

###

Test system: PPARg homodimer (NR concentration 180 nM)
Experiment: PBM binding z-score (relative to random genomic background probes); higher = stronger binding; sequences stand for … in GC…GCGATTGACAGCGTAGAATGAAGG

{"columns": ["entry-sequence", "PBM binding z-score"],
 "data": [
  ["TATTGTAGATCAACAGGAGGTTAAGAAAGATCGA", 0.72],
  ["CATACTAGGTCAAGGTCAAAGTCGGTTTGTGCCA", 5.3],
  ["TCGAGTAGGTTACCGATGGGGCATTCAGCTTTCT", -0.276],
  ["CGAACGAGGGCATTAGTTGATAGCAAATGCCGAT", -0.0468],
  ["TAGCCTACGTCAGATCGGGCCAGTATACGCTATA", -1.51],
  ["TCTATTAGTTGAAGGTCAACCGACGAGTCCGTTT", 3.86],
  ["ATATCTAGGTAACAAGTTCAGTGAAAGAGAGGAC", 1.51],
  ["GGATCGAGGGCAAGTTGATAGCAGAGTTTGATGG", 1.07],
  ["CCTACCAGGCCAGGGTCACTCAAGCATTTCGCTT", 1.75],
  ["AGAACGATGGCACGCTGAGTTGATAGCAGAGTAG", 0.102],
  ["GGGACGAGGGCAAGTTGATAGCAGAGTTTGATGG", 1.21],
  ["CGTCCAAGGTCAATGCTAGGTCAGTGAGAGCATT", 6.21],
  ["TTACCAAGGTGAGCAGAGGTCGTTGATCCAACTC", 0.497],
  ["GCCAGTTGGTCAGTAAAAGGTCACACACCGGTCG", 3.78]
]}

###

Test system: PPARg DBDmut:RXRa IVT, anti-PPARg (DBD mutation: PPARg1 K132A/R137A, NR concentration 270 nM, RXRa partner concentration 90 nM)
Experiment: PBM binding z-score (relative to random genomic background probes); higher = stronger binding; sequences stand for … in GC…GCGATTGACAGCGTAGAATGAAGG
Lab note: class by PBM binding z-score, see lo = under -0.5, mid = from -0.5 up to 0.5, hi = 0.5 and over

{"columns": ["entry-sequence", "class-assignment"],
 "data": [
  ["CCTACTGGGCCTCGAAAGGTCATTGATTCAGTGA", "lo"],
  ["TGTCAAAATTCAAAGGTAACGTAAGTATCCACAC", "hi"],
  ["CCTTACGGGTCACTCCAGGCTATAGCATCGGAGT", "mid"],
  ["CCGACTGGGGCAGGGTTACCATAACGCACAGCCA", "lo"],
  ["GCTGCTAGGTCAGATTGGTCAGCTAACGGGTACG", "mid"],
  ["CCTGCTAGGTCCATGGTCAGCTAAAGCAGCTCGC", "lo"],
  ["TAGCCTAGGTCAGATCGGGCCAGAATACGCTATA", "lo"],
  ["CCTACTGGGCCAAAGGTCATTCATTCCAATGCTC", "hi"],
  ["CCAGACAGGTAAAAGGTAACTCAGTCTGGTACGC", "lo"],
  ["TCATATAGGTAAACGGTGAAAGTCGGTGTGGTAA", "hi"],
  ["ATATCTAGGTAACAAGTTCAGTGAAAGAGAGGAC", "hi"],
  ["TCTATTAGTTGATTAGGGCAACTGAAACAGCGGA", "hi"],
  ["ATCGAAAGATCGACGAGGTGAGTATACACCGTTT", "mid"],
  ["TAGCCTAGGTCAGATGGGGCCAGTATACGCTATA", "lo"],
  ["CCTTACCGGTCACTGACAGGTTATAGCATTTGGA", "hi"],
  ["ACTAGCAGGCCAAGTTTGGGTCAATCAAACAAAG", "lo"],
  ["CCGACTGGGGCACAAAGGTTACCATACCATCCGG", "mid"],
  ["CAAACTAGGTCAGAACAGGACAGTGAAGGATGAT", "hi"]
]}

###

Test system: PPARg:RXRa 90nM:30nM, anti-RXR (NR concentration 90 nM, RXRa partner concentration 30 nM)
Experiment: PBM binding z-score (relative to random genomic background probes); higher = stronger binding; sequences stand for … in GC…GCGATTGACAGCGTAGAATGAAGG
metric-name: PBM binding z-score

{"columns": ["entry-sequence", "metric-name", "assay-result"],
 "data": [
  ["GCTGCTGGGTCAGGTTGGTCAGCTAACGGGTACG", "PBM binding z-score", 0.0436],
  ["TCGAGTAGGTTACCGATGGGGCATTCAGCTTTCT", "PBM binding z-score", 1.3],
  ["ATCTCTAGGTAAAAATTCAGTGAATCCCGAGGAT", "PBM binding z-score", 1.1],
  ["GCTCCTAGGTCAACTGATGGTCAGCTAAAGCTCG", "PBM binding z-score", 2.51],
  ["CAAACTAGGTCAAGATGTCAAAGTCCGCTTCCCG", "PBM binding z-score", 7.04],
  ["CGTCAAAGTTCAACTAAGGTAACGCAAAGCACGC", "PBM binding z-score", 4.74],
  ["AGAATGAGGCTACCAAAGATCAGGGAAACGCTTG", "PBM binding z-score", 0.1],
  ["CCGACTGGGGCAGAAGGTTACCATAAGCCAGCCC", "PBM binding z-score", 2.15],
  ["TCATATAGGTAAAGGGTGAAAGTCGGTGTGGTAA", "PBM binding z-score", 7.63],
  ["AATACAGGGTCACTAGGCCGGAGTAGGTACGAAT", "PBM binding z-score", 4.78],
  ["TCTGCTAGGTCAGTTTGTCAGCTAACGAGCTGCC", "PBM binding z-score", 1.4],
  ["CCGACTGGGGGAAAGGTTACCATACTCAGTACGA", "PBM binding z-score", 9.88],
  ["CCTCGGAGGACAGAAGGTCAGAGCCGTCCGCTTT", "PBM binding z-score", 0.277],
  ["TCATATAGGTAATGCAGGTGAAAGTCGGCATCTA", "PBM binding z-score", 2.86],
  ["ATCTCTAGGTGAAGATAGTTCAGTGAATGCAAAT", "PBM binding z-score", 0.885],
  ["TCTCGGAGGACACGAAGGTCAGAACTTTCCAGAG", "PBM binding z-score", 1.96],
  ["GCTGCTAGGTCAACTGATGGTCAGCTGAAGCTCG", "PBM binding z-score", 2.21],
  ["GCTTGTACATCAAGGTTAAGAAAGACTAAGCTAA", "PBM binding z-score", 0.084],
  ["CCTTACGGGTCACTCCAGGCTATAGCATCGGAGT", "PBM binding z-score", 1.9],
  ["AGAATGAGGTTACAAAAGATCAGGGAAACGCTTG", "PBM binding z-score", 1.54],
  ["CCAGACAGGTGAGAAGGTGACTCAGCCTCGATTA", "PBM binding z-score", 0.222],
  ["TCTTGTAGGTCAAGCAGGTTAAGAAAGCCTGAGT", "PBM binding z-score", 6.42],
  ["TCGAGTAGGTTAGTCTGGGCATTCAGCCAACATA", "PBM binding z-score", 0.781],
  ["AGAACGAGGGCAACGAGTTGATAGCACGGGTGGC", "PBM binding z-score", 0.609],
  ["CCAACTAGGTCAGAACAGGACAGTGAAGGATGAT", "PBM binding z-score", 2.8],
  ["TAGCCAAGGTCATGGGCCAGTATACCACGCGAAC", "PBM binding z-score", 4.55],
  ["AGAATGATGTTATACGTAGATCAGGGAAGAAAGT", "PBM binding z-score", -0.0681],
  ["CCTTACGGGTCAAGGTCATAGCACGGGTGGTACG", "PBM binding z-score", 4.68],
  ["TTACCAAGGTGAGCTGAGGTCGTTGCTCCAACTC", "PBM binding z-score", 0.141],
  ["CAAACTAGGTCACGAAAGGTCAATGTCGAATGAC", "PBM binding z-score", 8.33],
  ["TCTAGTTGGTCACGGAGGTCAGACACGACGGGTA", "PBM binding z-score", 3.11],
  ["CCAGACAGATGAGAAGGTAACTCAGCCTCGATTA", "PBM binding z-score", -0.366],
  ["TTACCAAGGTGTAGGTCGTTGATCCCTCTGTAGA", "PBM binding z-score", 1.52],
  ["ACTAGCAGGCCAAGGGTTACTCAAGATTAGTCCG", "PBM binding z-score", 5.71],
  ["CCTACCGGGCCATCAGGTCATTGATATCAACGTT", "PBM binding z-score", 1.09],
  ["AGTACAGGGTCACTAGGCCAGAGTAGGTACGAAT", "PBM binding z-score", 5.23],
  ["TCTATTAGTAGATTAGGGCAACCGAAACAGCGGA", "PBM binding z-score", 2.5],
  ["ATCTCTAGGTAAAGATAGTTCACTGAATGCAAAT", "PBM binding z-score", 0.797],
  ["ATGTGTAGGTTAGCTGGGGTCATTCAGACTAGGC", "PBM binding z-score", 2.54]
]}
